ASSAY TARGET: Human Cot (Homo sapiens (Human), UniProt P41279)
Sequence (P41279 30-397): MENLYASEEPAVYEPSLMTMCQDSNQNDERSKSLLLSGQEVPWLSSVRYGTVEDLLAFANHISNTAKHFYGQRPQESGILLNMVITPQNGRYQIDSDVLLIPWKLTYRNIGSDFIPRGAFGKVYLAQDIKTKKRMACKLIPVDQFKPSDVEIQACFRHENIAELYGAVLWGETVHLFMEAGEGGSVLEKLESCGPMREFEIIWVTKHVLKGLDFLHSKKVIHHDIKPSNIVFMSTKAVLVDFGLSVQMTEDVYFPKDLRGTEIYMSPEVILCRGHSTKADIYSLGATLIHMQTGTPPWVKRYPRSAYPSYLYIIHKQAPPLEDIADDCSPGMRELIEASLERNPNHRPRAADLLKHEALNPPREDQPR
EXPERIMENT: High Throughput Cot Biochemical Assay
MEASUREMENT PARAMETERS: IC50 HTRF, Cot HTRF (TR-FRET) biochemical assay
REPORTED METRIC: IC50 (nM)

(1) N#Cc1cnc2c(Cl)cc(N[C@@H](c3cccnc3)c3c[nH]nn3)cc2c1Nc1cnc(F)c(F)c1
(2) CC(C)(C)CNc1c(C#N)cnc2c(Cl)cc(N[C@H](c3cn(C4(C(F)(F)F)CC4)nn3)c3cccc4ncccc34)cc12
(3) [2H][C@](Nc1cc(Cl)c2ncc(C#N)c(Nc3ccc(OC)c(Cl)c3)c2c1)(c1ccc(F)nc1)c1cn(C2CC2)nn1
(4) Cc1nc(F)ccc1[C@@H](Nc1cc(Cl)c2ncc(C#N)c(N[C@H](CCC#N)c3ccccc3)c2c1)c1cn(C2CC2)nn1
# input Task for the reader: place the compounds above in descending order according to recorded IC50. The reply should contain the labels ordered as requested.
# output 4, 2, 3, 1

* * *

Tested on: TNFα
EXPERIMENT: Cot Monocyte TNFα Cell Based Assay
MEASUREMENT PARAMETERS: Homo sapiens, Monocyte, read-out: EC50 TNF, LPS-stimulated human monocytes, TNFα
REPORTED METRIC: EC50 (nM)

Sample answers from the record:
>  <COMPOUND>
Cc1nc(F)ccc1[C@H](Nc1cc(Cl)c2ncc(C#N)c(NCC(C)(C)C)c2c1)c1cn(CC2(C)CC2)nn1 [Example 764]

>  <EC50 (nM)>
46

$$$$
>  <COMPOUND>
Cc1nc(F)ccc1[C@H](Nc1cc(Cl)c2ncc(C#N)c(NCC(C)(C)CC#N)c2c1)c1cn(C2(C(F)F)CC2)nn1 [Example 512]

>  <EC50 (nM)>
418

$$$$
>  <COMPOUND>
Cc1c([C@H](Nc2cc(Cl)c3ncc(C#N)c(NCC(C)(C)C)c3c2)c2cn(C3(C(F)F)CC3)nn2)ccc(=O)n1C [Example 732]

>  <EC50 (nM)>
779

$$$$

(a) CC[C@@H](Nc1c(C#N)cnc2c(Cl)cc(N[C@@H](c3cccnc3)c3cn([C@@H](C)CF)nn3)cc12)c1ccccc1 [Example 181]
(b) CC(C)(C)N1CCC(n2cc([C@@H](Nc3cc(Cl)c4ncc(C#N)c(Nc5ccc(F)c(Cl)c5)c4c3)c3cscn3)nn2)CC1 [Example 353]
# input Quick check, higher EC50 between a and b ? Write down the label attached to your selection.
# output b
(b: 184 nM, a: 92 nM)

* * *

ASSAY TARGET: Human Cot (Homo sapiens (Human), UniProt P41279)
EXPERIMENT: High Throughput Cot Biochemical Assay
MEASUREMENT PARAMETERS: IC50 HTRF, Cot HTRF (TR-FRET) biochemical assay
REPORTED METRIC: IC50 (nM)

>  <MOLECULE>
C[C@@H](CF)n1cc([C@@H](Nc2cc(Cl)c3ncc(C#N)c(Nc4cnc(F)c(F)c4)c3c2)c2cccnc2)nn1

>  <READOUT UNIT>
nM

>  <IC50>
9

$$$$
>  <MOLECULE>
[2H]C(Nc1cc(Cl)c2ncc(C#N)c(NC(CCC#N)c3ccccc3)c2c1)(c1ccc(F)nc1)c1cn(C2CC2)nn1 (stereo not shown)

>  <READOUT UNIT>
nM

>  <IC50>
7

$$$$
>  <MOLECULE>
CC(C)(C)CNc1c(C#N)cnc2c(Cl)cc(N[C@H](c3cn(C(C)(C)CF)nn3)c3cccc4ncccc34)cc12

>  <READOUT UNIT>
nM

>  <IC50>
7

$$$$
>  <MOLECULE>
Cc1nc(F)ccc1[C@H](Nc1cc(C#N)c2ncc(C#N)c(NCC3(C(F)F)CC3)c2c1)c1cn(C2(C(F)(F)F)CC2)nn1

>  <READOUT UNIT>
nM

>  <IC50>
58

$$$$
>  <MOLECULE>
[2H]C(Nc1cc(Cl)c2ncc(C#N)c(N[C@H](CCO)c3ccccc3)c2c1)(c1ccc(F)nc1)c1cn(C2CC2)nn1 (stereo partly shown)

>  <READOUT UNIT>
nM

>  <IC50>
7

$$$$

(a) Cc1n[nH]c2cccc([C@H](Nc3cc(Cl)c4ncc(C#N)c(NCC(C)(C)C)c4c3)c3cn(C4(C(F)F)CC4)nn3)c12
(b) N#Cc1cnc2c(Cl)cc(N[C@@H](c3cccnc3)c3cn(CCO)nn3)cc2c1Nc1ccc(F)c(Cl)c1
# input Identify the item whose IC50 is the smaller number: a or b Your choice should be expressed through its label.
# output b
(b: 2 nM, a: 8 nM)

* * *

ASSAY TARGET: Human Cot (Homo sapiens (Human))
EXPERIMENT: High Throughput Cot Biochemical Assay
MEASUREMENT PARAMETERS: IC50 HTRF, Cot HTRF (TR-FRET) biochemical assay
pIC50: −log10 of the molar value.
REPORTED METRIC: pIC50

Known results for compounds:
>  <COMPOUND>
Cn1ccc2c([C@H](Nc3cc(Cl)c4ncc(C#N)c(NCC(C)(C)C(F)(F)F)c4c3)c3cn(C4(C(F)(F)F)CC4)nn3)cccc2c1=O [Example 780]

>  <pIC50>
8.30

$$$$
>  <COMPOUND>
Cc1nc(F)ccc1[C@H](Nc1cc(Cl)c2ncc(C#N)c(NCC(C)(C)C)c2c1)c1cn(C2(C(=O)N3CCCC3)CC2)nn1 [Example 554]

>  <pIC50>
8.30

$$$$
>  <COMPOUND>
Cn1nccc1[C@H](Nc1cc(Cl)c2ncc(C#N)c(NCC(C)(C)C)c2c1)c1cn(C2(C(F)F)CC2)nn1 [Example 665]

>  <pIC50>
8.22

$$$$
>  <COMPOUND>
Cn1cnc2cccc([C@H](Nc3cc(Cl)c4ncc(C#N)c(NCC(C)(C)C)c4c3)c3cn(C4(C(F)F)CC4)nn3)c21 [Example 499]

>  <pIC50>
8.52

$$$$
>  <COMPOUND>
Cc1nc(F)ccc1[C@H](Nc1cc(Cl)c2ncc(C#N)c(NCC(C)(C)C)c2c1)c1cn(C23CC(C2)C3)nn1 [Example 646]

>  <pIC50>
8.52

$$$$

(I) [2H][C@](Nc1cc(Cl)c2ncc(C#N)c(NCC(C)(C)C)c2c1)(c1ccc(F)nc1)c1cn(C2CC2)nn1 [Example 142]
(II) CC[C@@H](Nc1c(C#N)cnc2c(Cl)cc(N[C@H](c3cn(C4(C(F)(F)F)CC4)nn3)c3ccc(F)nc3C)cc12)c1ccccc1 [Example 440]
# input Given I and given II , which shows the smaller recorded pIC50? Refer to your chosen item by its label in the answer.
# output II
(II: 8.15, I: 8.70)

(a) CC(C)(C)CNc1c(C#N)cnc2c(Cl)cc(N[C@H](c3cn(C4CCN(C(C)(C)C)CC4)nn3)c3cccc4ncsc34)cc12 [Example 419]
(b) Cc1nc(F)ccc1[C@H](Nc1cc(Cl)c2ncc(C#N)c(NCC(C)(C)C)c2c1)c1nnn(C2CC2)c1Cl [Example 662]
# input From the items above, decide which of a and b has the lower pIC50 reading. Could you answer with the label of the item you picked?
# output b
(b: 8.22, a: 8.52)

(I) CC1(C)COCC[C@@H]1Nc1c(C#N)cnc2c(C#N)cc(N[C@H](c3cn(C4(C(F)(F)F)CC4)nn3)c3cccc4ncsc34)cc12 [Example 475]
(II) [2H][C@](Nc1cc(Cl)c2ncc(C#N)c(N[C@H](CC)c3ccccc3)c2c1)(c1ccc(F)nc1)c1c[nH]nn1 [Example 134]
# input Just tell me: smaller pIC50 value, I or II ? Pick one and reply with its label.
# output I

(P) Cn1ccc2c([C@H](Nc3cc(Cl)c4ncc(C#N)c(NCC(C)(C)C)c4c3)c3cn(C4(C(F)F)CC4)nn3)ccnc21 [Example 767]
(Q) CC[C@@H](Nc1c(C#N)cnc2c(Cl)cc(N[C@@H](c3cccnc3)c3cn(CC#N)nn3)cc12)c1ccccc1 [Example 175]
(R) [2H][C@@](Nc1cc(Cl)c2ncc(C#N)c(NCC(C)(C)C)c2c1)(c1cn(C2CC2)nn1)c1cccnc1F [Example 104]
# input Highest pIC50 first, then in falling order down to the smallest. Please respond by ranking the labels in the order requested.
# output R, Q, P
(R: 9.00, Q: 8.52, P: 7.74)

* * *

ASSAY TARGET: Human Cot (Homo sapiens (Human), UniProt P41279)
EXPERIMENT: High Throughput Cot Biochemical Assay
MEASUREMENT PARAMETERS: IC50 HTRF, Cot HTRF (TR-FRET) biochemical assay
REPORTED METRIC: IC50 (nM)

>  <CHEMICAL SMILES>
Cc1nc(F)ccc1[C@H](Nc1cc(C#N)c2ncc(C#N)c(NCC(C)(C)C)c2c1)c1nnn(C2CC2)c1F

>  <ASSAY TARGET>
Human Cot (Homo sapiens (Human), UniProt P41279)

>  <IC50 (nM)>
2

$$$$
>  <CHEMICAL SMILES>
N#Cc1cnc2c(Cl)cc(N[C@H](c3c[nH]nn3)c3cccc4c3CNC4)cc2c1Nc1ccc(F)c(Cl)c1

>  <ASSAY TARGET>
Human Cot (Homo sapiens (Human), UniProt P41279)

>  <IC50 (nM)>
6

$$$$
>  <CHEMICAL SMILES>
Cc1nc(F)ccc1[C@H](Nc1cc(C#N)c2ncc(C#N)c(NCC(C)(C)C)c2c1)c1cn(C2(C(N)=O)CCC2)nn1

>  <ASSAY TARGET>
Human Cot (Homo sapiens (Human), UniProt P41279)

>  <IC50 (nM)>
1

$$$$

(a) Cc1nc(F)ccc1[C@H](Nc1cc(Cl)c2ncc(C#N)c(N[C@H]3CCOC3(C)C)c2c1)c1cn(C2(C(F)F)CC2)nn1
(b) Cc1ccc([C@H](Nc2cc(C#N)c3ncc(C#N)c(NCC(C)(C)C)c3c2)c2cn(C3(C(F)(F)F)CC3)nn2)c(F)n1
# input Return label of the item with the larger IC50. Candidates: a , b . Bench note: the answer is the label of the chosen record.
# output b
